- Tested on: polyol oxidase derived from Penicillium sp. KU-1
- assayName: Substrate specificity of the partially purified polyol oxidase (peroxidase method)
- Assay type: biochemical
measuredEndpoint: activity of the enzyme for the polyol (in words)

Example compounds with recorded activity of the enzyme for the polyol (in words):
[[record]]
compoundsmiles = "OC[C@@H](O)[C@@H](O)[C@H](O)[C@@H](O)CO"
measurement = "high"

[[record]]
compoundsmiles = "OC[C@@H](O)[C@@H](O)[C@H](O)[C@H](O)CO"
measurement = "high"

[[record]]
compoundsmiles = "OC[C@@H](O)[C@H](O)[C@H](O)[C@H](O)CO"
measurement = "low"

[[record]]
compoundsmiles = "OC[C@@H](O)[C@@H](O)[C@@H](O)[C@@H](O)CO"
measurement = "low"

[[record]]
compoundsmiles = "OC[C@@H](O)[C@@H](O)CO"
measurement = "high"


Query: Fill in the blank: the reported activity of the enzyme for the polyol (in words) of OC[C@@H](O)C(O)[C@H](O)CO is ____.
Reply: high

Query: Same again, this time with OC[C@@H](O)[C@@H](O)[C@@H](O)CO
Reply: low

Provenance of the data: patent US20140302568A1
